Biological target: T1, p38α (UniProt Q16539 1-360)
T1 construct: The in vitro activity assay used active, phosphorylated pp-p38α (1 nM); source: recombinantly expressed in Escherichia coli, purified according to Garai et al
T1 sequence (Q16539 whole entry): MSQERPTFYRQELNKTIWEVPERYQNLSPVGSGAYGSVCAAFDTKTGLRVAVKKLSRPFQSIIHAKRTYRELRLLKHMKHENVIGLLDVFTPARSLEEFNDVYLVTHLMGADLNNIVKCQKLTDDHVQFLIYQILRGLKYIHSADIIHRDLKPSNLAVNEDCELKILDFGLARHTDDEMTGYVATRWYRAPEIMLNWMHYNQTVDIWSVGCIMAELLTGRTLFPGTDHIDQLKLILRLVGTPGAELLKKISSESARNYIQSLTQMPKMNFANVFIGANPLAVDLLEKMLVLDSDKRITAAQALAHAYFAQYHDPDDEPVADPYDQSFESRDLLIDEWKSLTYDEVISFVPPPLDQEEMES
Test: fluorescence polarisation; competitive: complex of the MAPK with 50 nM Cf-RHDF at 60-80% complex formation titrated with increasing unlabeled peptide; 20 mM Tris pH 8.0, 100 mM NaCl, 0.05% Brij35, 2 mM TCEP; 384-well black plates; triplicates; constants are called Kd in Table 1 and Ki in the methods
Details: both partners purified
Primed or numbered codes have the meaning given here. The star is where a group is joined. Dabcyl′ = 4-((4-(dimethylamino)phenyl)azo)benzoyl, CN(C)c1ccc(/N=N/c2ccc(C(=O)*)cc2)cc1
Attribute Measured: Kd (nM)
State just the number; it will be interpreted in nM.

Which Kd is listed for H-RRRPPWLRLDIRR-NH2 (peptide 6 with one more Arg at the N-terminus; source: synthetic peptide (Fmoc/tBu solid phase on Rink-amide MBHA resin, RP-HPLC purified)) [H-RRRPPWLRLDIRR-NH2 (peptide 8)] ?
1400

Which Kd is listed for H-RRPPWLRLDI-NH2 (source: synthetic peptide (Fmoc/tBu solid phase on Rink-amide MBHA resin, RP-HPLC purified)) [H-RRPPWLRLDI-NH2 (peptide 5)] ?
10000

Which Kd is listed for {Dabcyl′}-RRRPPWLRLDIRRK-NH2 (SMILES CC[C@H](C)[C@H](NC(=O)[C@H](CC(=O)O)NC(=O)[C@H](CC(C)C)NC(=O)[C@H](CCCNC(=N)N)NC(=O)[C@H](CC(C)C)NC(=O)[C@H](Cc1c[nH]c2ccccc12)NC(=O)[C@@H]1CCCN1C(=O)[C@@H]1CCCN1C(=O)[C@H](CCCNC(=N)N)NC(=O)[C@H](CCCNC(=N)N)NC(=O)[C@H](CCCNC(=N)N)NC(=O)c1ccc(/N=N/c2ccc(N(C)C)cc2)cc1)C(=O)N[C@@H](CCCNC(=N)N)C(=O)N[C@@H](CCCNC(=N)N)C(=O)N[C@@H](CCCCN)C(N)=O, peptide 8 with a Lys at the C-terminus and a Dabcyl group on the N-terminus; also called Dabcyl-containing peptide (unlabelled); source: synthetic peptide (Fmoc/tBu solid phase on Rink-amide MBHA resin, RP-HPLC purified)) [Dabcyl-RRRPPWLRLDIRRK-NH2 (peptide 10)] ?
1000

Which Kd is listed for H-SLQRKKPPWLKLDIPSC-NH2 (C-terminal cysteine that follows the 16 residues of the motif in the printed peptide; not part of the motif as printed in the text; The added Cys probably serves for conjugation (cysteine containing peptides were joined to chloroacetylated peptides); also called original peptide; source: synthetic peptide (Fmoc/tBu solid phase on Rink-amide MBHA resin, RP-HPLC purified)) [H-SLQRKKPPWLKLDIPSC-NH2 (peptide 1, RHDF1 linear binding motif)] ?
1100
